Source listed as ChEMBL document CHEMBL1201862.

test system: RXF 393; test: NCI tumour cell line growth inhibition, 48 h
Activity calls are given as the source filed them. Cut-off read from the data, not from the text of the source: active = GI50 up to about 1.1 µM and inactive = higher.
# valid calls are active, inactive; nothing else

Below, 2 molecules whose answers are already recorded.
* ClCCc1ccccc1CC1=NCCc2ccccc21 | inactive
* CC(C)CC1N=C(OCc2ccccc2)OC1=O (centres undefined) | inactive

Which result was noted for this molecule in the test: Cc1cccc(N2C(=O)C(=O)C(c3nc4ccccc4s3)/C(=N/NC(=S)NN)C2=O)c1C (centres undefined)
inactive

Hi, do you know how `CN1c2ccccc2C(=O)Nc2cnc(Cl)nc21` came out in this test?
inactive

Assay result, entry `NN/C(=N\S(=O)(=O)c1cc(Cl)c(Oc2ccc([N+](=O)[O-])cc2Cl)c(Cl)c1)Nc1ccc(Cl)cc1` — outcome?
inactive

Name the outcome recorded for CC(/C(=N/NC(=O)C(N)=O)c1c(Cl)ccc(Cl)c1O)C1(O)C(=O)Nc2ccccc21 (centres undefined) in the assay.
inactive

Could you please tell me the result logged for `O=c1cc(CN2CCCCC2)nc2ccc3c(O)cc(CN4CCCCC4)nc3n12` in this assay?
inactive

What outcome does the record of this test show for CCCCCCCCCCCCCCCCCCOCC(CCP(=O)(CP(=O)(O)O)Oc1ccccc1)OCCCCCCCCCCCCCCCCCC (centres undefined) ?
inactive

Recorded call for O=c1c2cc(Br)ccc2nc(-c2ccccc2Cl)n1NCC1(O)OCC(O)C(O)C1O (centres undefined) ?
inactive

For this molecule, state the assay outcome: `O=C1O/C(=C\c2ccc(O)cc2)C(c2ccc(O)c(Cl)c2)=C1Cl`
inactive

Entry COc1c(OC2OC(CO)C(O)C(O)C2O)cc2c(c1OC)-c1ccc(OC)c(=O)cc1[C@@H](NC(C)=O)CC2 (some centres undefined) : call = ?
inactive

Tell me the recorded outcome of this test for `C[C@@H]1C[C@H](O)[C@]2(O)O[C@@H]3C[C@@]4(C=O)[C@@H](CC=C5[C@@H]4CC[C@]4(C)[C@@H](C6=CC(=O)OC6)CC[C@]54O)C[C@H]3O[C@@H]2O1` .
active

Each molecule tested received a call. Report the one for C[C@]12CCNC(=O)C=C1CC[C@@H]1C2CC[C@@]2(C)C1CC[C@@H]2OC(=O)COc1ccc(N(CCCl)CCCl)cc1 (some centres undefined) .
inactive

---

tested on: NCI/ADR-RES; test: NCI tumour cell line growth inhibition, 48 h
Active and inactive are the calls of the source. No stated cut-off is given here; in the data, active = GI50 up to about 1.1 µM and inactive = higher.
Measured Attribute: GI50

For orientation, consider the following solved cases.
- CC1OC2OC3C(OCC(O)C3O)OC(=O)[C@]34CCC(C)(C)CC3C3=CCC5[C@@]6(C)C[C@H](O)[C@H](OC7OC(CO)C(O)C(O)C7OC7OC(COC(=O)CC(C)(O)CC(=O)OC1C(OC1OC(CO)C(O)C(O)C1O)C2O)C(O)C(O)C7O)[C@@](C)(CO)C6CC[C@@]5(C)[C@]3(C)CC4 (some centres undefined): 3150 nM (inactive)
- CN(C)Cc1c(O)ccc2c1c1c(n2C)C(=O)c2ccccc2C1=O: 2730 nM (inactive)
- CC(C)OC(=O)c1ccc(NCc2cc(O)ccc2O)cc1: 1950 nM (inactive)

Could you now consider this next molecule?
Reported GI50 for NC(Cc1ccccc1)C(=O)NC(Cc1ccccc1)NC(=O)C(Cc1c[nH]c2ccccc12)C(=O)O (centres undefined) : what is it?
> 100000 nM (inactive)

---

tested on: HCT-116; assay: NCI tumour cell line growth inhibition, 48 h
The source made the active and inactive calls. Rule as the data show it: active = GI50 up to about 1.1 µM and inactive = higher. Where a SMILES comes first, the peptide text is derived from it. [ ]: non-standard residue; d: D form. Hiv = CC(C)[C@H](O)C(=O)O
Measured Attribute: GI50

• C=CCc1cc(-c2cc(CC=C)c(O)c(CNC)c2)cc(CNC)c1O = 14.7 µM (inactive)
• O=C(O)[C@@H]1CCC(=O)N1C(c1ccc2c(c1)OCO2)c1ccc2c(c1)OCO2 = > 100 µM (inactive)
• CCCC(=O)OCC1OC(n2cc(F)c(=O)[nH]c2=O)C(F)C1OC(=O)CCC (stereo not given) = 21.5 µM (inactive)
• CN(C)Cc1c(O)ccc2c1c1c(n2C)C(=O)c2ccccc2C1=O = 9.95 µM (inactive)
• NC1=NCC(c2ccccn2)C1c1ccc(F)cc1 (stereo not given) = > 100 µM (inactive)

# input compound: CC(C)[C@@H]1OC(=O)[C@@H](C)NC(=O)[C@@H]2CCCN2C1=O (cyclo([Hiv]-Pro-[dA])) ; wanted: its GI50
> 100 µM (inactive)

Entry Cc1c2ccccc2c(C2C3C(=O)N(c4ccc(Br)cc4)C(=O)C3ON2C(C(N)=O)c2ccccc2)c2ccccc12 (stereo not given) has what GI50?
4.37 µM (inactive)

Any idea what GI50 was measured for `c1ccc2c(c1)nc1n2CSCC1` ?
> 100 µM (inactive)

Item `COC(=O)n1c(=O)n(-c2ccccc2)c(=O)n1C(=O)OC` has what recorded GI50?
> 100 µM (inactive)

Returns the measured GI50 for the input compound. Input: COC1(C)C(=O)N2C1N(C(=O)OC(C)(C)C)CC2(C)C (stereo not given)
96.4 µM (inactive)

---

A collection of compounds and their measured GI50
tested on: XF498; assay: NCI tumour cell line growth inhibition, 48 h
Active and inactive are the calls of the source. Cut-off read from the data, not from the text of the source: active = GI50 up to about 1.1 µM and inactive = higher.

• O=C1C=CC(=O)c2cc(Sc3ccccc3)c(=O)c(Sc3ccccc3)cc21 = 86.3 µM (inactive)
• C[n+]1c2ccccc2c(CNCC(=O)O)c2ccccc21 = 2.14 µM (inactive)
• O=C(O)/C(Cl)=C(\Cl)Nc1cccc(C(F)(F)F)c1 = > 100 µM (inactive)
• O=C(O)c1ccc([I+]c2ccccc2)cc1 = > 100 µM (inactive)

# lookup: GI50 of Cc1ccc(S(=O)(=O)NC2(C=O)CCC(C(C)(C)C)CC2)cc1 (stereo unspecified)
43.8 µM (inactive)

Requested field: GI50. Item: `CN(C)/N=N/c1ccc(S(N)(=O)=O)cc1`
> 100 µM (inactive)

---

system: OVCAR-5; assay: NCI tumour cell line growth inhibition, 48 h
The source made the active and inactive calls. Cut-off read from the data, not from the text of the source: active = GI50 up to about 1.1 µM and inactive = higher. Starred links: 1 amine or outer side, 2 acyl side, 3 side chain; linkers in the order of their positions; H or OH if unused. Positions of bridges follow the written chain, without caps; N, C: chain ends. Non-standard residues stand in square brackets, D forms with d. Residues, ends and D or L forms follow the SMILES beside them. *: point of attachment. X40 = CC[C@H](C)[C@@H](N[*:1])[C@@H](O)CC(=O)[*:2]; NMeY = CN[C@@H](Cc1ccc(O)cc1)C(=O)O; dNMeL = CN[C@H](CC(C)C)C(=O)O; Hiv = CC(C)[C@H](O)C(=O)O; Pyruvoyl = CC(=O)C(=O)*
Choose the fitting class; nothing outside T for active, F for inactive is accepted.

- CCN1CN(c2ccccc2)C2(CCN(CC3COc4ccccc4O3)CC2)C1=O (stereo not drawn): F

// param item: `Cc1nc(/C(=N\n2cnnc2)Nc2ccc(Br)cc2)no1` ; yields the recorded call
F

For `C=CCN(c1cc(OC)c(NC(C)=O)cc1[N+](=O)[O-])S(C)(=O)=O` , what call appears in the results of this test?
F

Which outcome did this test record for the molecule `CCCCCCCCCCCCCCCCCCNC(=S)NC=C1C(=O)c2ccccc2C1=O` ?
F

Tell me the assay call for `C=C(CC[C@@H](C)[C@H]1CC[C@H]2[C@@H]3C[C@@H](O)[C@H]4C[C@@H](O)CC[C@]4(CO)[C@H]3CC[C@]12C)C(C)C` please.
F

Give the logged outcome of this assay for the following molecule: CC[C@H](C)[C@H]1NC(=O)[C@@H](NC(=O)[C@@H](CC(C)C)N(C)C(=O)[C@@H]2CCCN2C(=O)C(C)=O)[C@@H](C)OC(=O)[C@H](Cc2ccc(OC)cc2)N(C)C(=O)[C@@H]2CCCN2C(=O)[C@H](CC(C)C)NC(=O)[C@H](C(C)C)OC(=O)C[C@@H]1O (Pyruvoyl-P[dNMeL]T[X40][Hiv]LP[NMeY](Me); ester 3-C)
T

Given Cc1ccc(N2Cc3c(ccc4ccccc34)OP2(=S)N2CCCC2)cc1 (stereo not drawn) , state the outcome it received in this test.
F

Name the outcome recorded for N#CC1CC2(C(=O)C1=O)c1ccccc1-c1ccccc12 (stereo not drawn) in the assay.
F

---

test system: A549; test: NCI tumour cell line growth inhibition, 48 h
Activity calls are given as the source filed them. Rule as the data show it: active = GI50 up to about 1.1 µM and inactive = higher.
Measured Attribute: GI50

# example entries with known answers
- C#C/C=C\CCCCCCCCCCCCCC/C=C\CCCCC#CC(O)C#CCCCC/C=C\CCCCCC/C=C/C(O)C#C (centres undefined): 12.1 µM (inactive)
- C/C(=N/Nc1ccc([N+](=O)[O-])cc1[N+](=O)[O-])C(CC(C(=O)Nc1ccccc1C)/C(C)=N\Nc1ccc([N+](=O)[O-])cc1[N+](=O)[O-])C(=O)Nc1ccccc1C (centres undefined): 19.7 µM (inactive)
- O=C1c2cccnc2S(=O)(=O)N1c1ccc(Br)cc1: > 100 µM (inactive)

Data request, read-out GI50, for COc1cc(/C=C2\C(=O)N(c3ccccc3)C(c3ccccc3)S2(=O)=O)cc(OC)c1OC (centres undefined)
43.8 µM (inactive)
